Assay: Primary qHTS for inhibitors of nuclear receptor binding SET domain protein 2 (NSD2) in an RCH-ACV wild type WT cells (2C) (AID 1645877); also: nearly all actives have a fitted effect of over 70% in size
Conditions: RCH-ACV (leukaemia line) NSD2 WT (2C) viability, CellTiter-Glo, 72 h; series mostly up to 44.9 µM
Records with an inconclusive call do not appear. The source made the active and inactive calls. Calls follow the shape of the dose curve; as a rule, active = well fitted inhibition curve with a large enough effect; inconclusive = small, poorly fitted or top-dose-only effect; inactive = no such curve, though single readings can be large or run the other way.
Measure Name: activity change, negative = cell killing

C[C@H](CCC(=O)O)[C@H]1CC[C@H]2[C@@H]3[C@H](O)C[C@@H]4C[C@H](O)CC[C@]4(C)[C@H]3CC[C@]12C    inactive
COc1cc2c(cc1O)C1(OC)Cc3ccc4c(c3C1N(C)CC2)OCO4 (stereo not drawn)    inactive
CC1=CCC2C(C)(CO)CCCC2(C)C1CC12OC1C(O)C(CO)=CC2O (stereo not drawn)    inactive

----------
Tested on: Dd2
Assay: qHTS profiling for inhibitors of Plasmodium falciparum proliferation (AID 504749); also: nearly all actives have a fitted effect of over 60% in size
Conditions: P. falciparum in erythrocytes, SYBR Green DNA, 72 h; series mostly up to 28.7 µM
Inconclusive results are not listed. Calls of active or inactive are those of the source. Calls follow the shape of the dose curve; as a rule, active = well fitted inhibition curve with a large enough effect; inconclusive = small, poorly fitted or top-dose-only effect; inactive = flat fitted curve, though single readings scatter.
Your reply should match one of these outcome classes. T for active, F for inactive

C=C1C(=CC=C2CCC[C@@]3(C)[C@@H]2CC[C@H]3[C@H](C)CCCC(C)C)C[C@@H](O)C[C@@H]1O    T

Input line: # outcome recorded in this test, key = COC(=O)[C@H]1[C@H]2CC3c4[nH]c5ccccc5c4CCN3C[C@@H]2CC[C@@H]1O (stereo not given in full)
Output line: F

Input line: # outcome recorded in this test, key = CN1C(=O)CN2CCc3ccccc3C2c2cc(Cl)ccc21 (stereo not given)
Output line: F

----------
Tested on: NIH3T3
Experiment: qHTS assay to identify novel small-molecules to repurpose for Merkel cell carcinoma treatment (AID 1296009); also: nearly all actives have a fitted effect of over 60% in size
Details: MCC and control cell lines, CellTiter-Glo viability, 72 h; at 44.8 µM (top of the series) unless noted
Results filed as inconclusive are left out. Activity calls are given as the source filed them. Calls follow the shape of the dose curve; as a rule, active = well fitted inhibition curve with a large enough effect; inconclusive = small, poorly fitted or top-dose-only effect; inactive = flat fitted curve, though single readings scatter.
Measure Name: outcome

# example entries with known answers
CC(/C=C/C1(O)C(C)CC(O)CC1(C)C)OC1OC(CO)C(O)C(O)C1O (configuration not stated)    inactive
CC1=CC(=O)CC(C)(CO[C@@H]2O[C@H](CO)[C@@H](O)[C@H](O)[C@H]2O)C1(O)/C=C/C(C)=C/C(=O)O (some centres not stated)    inactive [at 17.4 µM]
O=C(/C=C/c1ccccc1)OCC1=CC[C@@H]2C(C(=O)O)=CO[C@@H](O[C@@H]3O[C@H](CO)[C@@H](O)[C@H](O)[C@H]3O)[C@H]12    inactive [at 17.4 µM]
CC(CCC1C(C(=O)O)=CC(=O)CC1(C)C)O[C@@H]1O[C@H](CO)[C@@H](O)[C@H](O)[C@H]1O (some centres not stated)    inactive
C[C@]1(OC(=O)/C=C/c2ccccc2)C[C@H](O)[C@]2(O)C=CO[C@@H](O[C@@H]3O[C@H](CO)[C@@H](O)[C@H](O)[C@H]3O)C12 (some centres not stated)    inactive [at 17.4 µM]
N#Cc1ccc2[nH]c(O)c(-c3ccc(CN4CCOCC4)cn3)c2c1    inactive
CC1(CCC(=O)O)C(=O)C=CC23CC4CC(OC4(C)C2O)C13 (configuration not stated)    inactive
C[C@]12CCC[C@](C)(C(=O)O)C1CCC13C=C(CO)C(CCC12)C3 (some centres not stated)    inactive

Now for the molecule whose outcome we want.
Input line: Quick check: outcome of CC(C)(O)C1=CCC23COC(C2)C(O)(C(=O)O)CCC13 (configuration not stated) ?
Output line: inactive

----------
Test system: Zika virus NS2B-NS3 protease (linked construct)
Assay: Primary screen NINDS Rhodamine qHTS for Zika virus inhibitors (AID 1347160); also: nearly all actives have a fitted effect of over 55% in size
Conditions: purified NS2B-NS3 protease, Rhodamine110 substrate fluorescence; series mostly up to 57.1 µM
Results filed as inconclusive are left out. The source made the active and inactive calls. Calls follow the shape of the dose curve; as a rule, active = well fitted inhibition curve with a large enough effect; inconclusive = small, poorly fitted or top-dose-only effect; inactive = no such curve, though single readings can be large or run the other way.
Your reply should match one of these outcome classes. 1.0 for active, 0.0 for inactive

A selection of reference data follows.
CC1=CC(=O)CC(C)(CO[C@@H]2O[C@H](CO)[C@@H](O)[C@H](O)[C@H]2O)C1(O)/C=C/C(C)=C/C(=O)O (stereo partly drawn)    0.0
COc1cc([C@H]2OC[C@@H]3[C@@H](c4ccc(O[C@@H]5O[C@H](CO)[C@@H](O)[C@H](O)[C@H]5O)c(OC)c4)OC[C@]23O)ccc1O    0.0
O=C(O)[C@H]1CCCC[C@H]1C(=O)N1CCc2ccccc2[C@H]1CN1C(=O)c2ccccc2C1=O    0.0
CC1(C)O[C@]23C[C@H]1C[C@H](OC(=O)c1ccoc1)[C@]2(C)[C@@H](OC(=O)c1ccoc1)CCC3(C)O (stereo partly drawn)    0.0
C[C@@H]1CC[C@H]2C(C)(C)[C@H](O)[C@H](O)C[C@]2(C)[C@@]12Cc1c(O)cc3c(c1O2)CNC3=O    0.0

Input line: # outcome recorded in this test, key = COc1ccccc1CC(C(=O)O)N(C)C(=O)c1ccccc1 (stereo not drawn)
Output line: 0.0

Input line: # outcome recorded in this test, key = O=C(/C=C/c1ccc(O)cc1)OC[C@H]1O[C@@H](OC(=O)/C=C/c2ccccc2)[C@H](O)[C@@H](O)[C@@H]1O
Output line: 0.0

Input line: # outcome recorded in this test, key = C=C(C)C1CC2(CO)C(=CC1=O)CCC(O)C2C (stereo not drawn)
Output line: 0.0

Input line: # outcome recorded in this test, key = NC(Cc1c[nH]c2ccccc12)C(=O)NC(CCC(=O)O)C(=O)O (stereo not drawn)
Output line: 0.0

Input line: # outcome recorded in this test, key = CCN[C@@H]1C[C@H](N)[C@@H](O[C@H]2OC(CN)=CC[C@H]2N)[C@H](O)[C@H]1O[C@H]1OC[C@](C)(O)[C@H](NC)[C@H]1O
Output line: 0.0

----------
System: CP256
Assay: qHTS profiling for inhibitors of Plasmodium falciparum proliferation (AID 504749); also: nearly all actives have a fitted effect of over 60% in size
Conditions: P. falciparum in erythrocytes, SYBR Green DNA, 72 h; series mostly up to 28.7 µM
Results filed as inconclusive are left out. Active and inactive are the calls of the source. Calls come from the whole dose curve; as a rule, active = well fitted inhibition curve with a large enough effect; inconclusive = small, poorly fitted or top-dose-only effect; inactive = flat fitted curve, though single readings scatter.
Your reply should match one of these outcome classes. TRUE for active, FALSE for inactive

CN1C(=O)CN2CCc3ccccc3C2c2cc(Cl)ccc21 (stereo not given)    FALSE

Input line: # outcome recorded in this test, key = CC(NNC(=O)c1ccccc1)c1ccccc1 (stereo not given)
Output line: FALSE

Input line: # outcome recorded in this test, key = NC(=O)c1ncn(C2OC(CO)C(O)C2O)n1 (stereo not given)
Output line: FALSE

Input line: # outcome recorded in this test, key = O=C1C(=O)c2ncccc2-c2cccnc21
Output line: TRUE

Input line: # outcome recorded in this test, key = COC(C(=O)C(O)C(C)O)C1Cc2cc3cc(OC4CC(OC5CC(O)C(O)C(C)O5)C(O)C(C)O4)c(C)c(O)c3c(O)c2C(=O)C1OC1CC(OC2CC(OC3CC(C)(O)C(O)C(C)O3)C(O)C(C)O2)C(O)C(C)O1 (stereo not given)
Output line: TRUE

Input line: # outcome recorded in this test, key = CCCCCCCCCCCCCC[n+]1ccc(C)cc1
Output line: TRUE

Input line: # outcome recorded in this test, key = CCCCCCCCCCCCCCCC(=O)OCC(COC(=O)CCCCCCCCCCCCCCC)OC(=O)CCCCCCCCCCCCCCC
Output line: FALSE

Input line: # outcome recorded in this test, key = Nc1ncnc2c1ncn2[C@@H]1O[C@H](COP(=O)(O)OP(=O)(O)OP(=O)(O)O)[C@@H](O)[C@H]1O
Output line: FALSE

Input line: # outcome recorded in this test, key = C#CCOc1ccc2c(C)cc(=O)oc2c1
Output line: FALSE

Input line: # outcome recorded in this test, key = O=C(O)CCC(=O)C(=O)O
Output line: FALSE

----------
Assay: P-glycoprotein substrates identified in KB-8-5-11 adenocarcinoma cell line, qHTS therapeutic library screen (AID 1346987); also: nearly all actives have a fitted effect of over 65% in size
Details: KB-8-5-11 (P-gp overexpressing) viability, CellTiter-Glo, 72 h; series mostly up to 44.5 µM
Experimental: The ATP-binding cassette transporters P-glycoprotein (P-gp) is known to limit brain penetration of many chemotherapy drugs. […] All cell lines were plated into 1536-well plates at 500 cells/well in 5 uL media. […] CellTiter-Glo reagent (Promega) was dispensed into the wells, incubated for 5 min and luminescence was read on a ViewLux instrument (Perkin-Elmer). […]
Inconclusive results are not listed. Calls of active or inactive are those of the source. The call rests on the fitted dose curve; in most records, active means well fitted inhibition curve with a large enough effect; inconclusive means small, poorly fitted or top-dose-only effect; inactive means flat fitted curve, though single readings scatter.
Measure Name: activity change, negative = cytotoxicity

CC1NC(=O)C(Cc2c[nH]c3ccccc23)NC1=O (stereo not drawn)    inactive
COc1cc([C@@H]2c3cc4c(cc3[C@@H](O[C@@H]3O[C@@H]5CO[C@@H](C)O[C@H]5[C@H](O)[C@H]3O)[C@H]3COC(=O)[C@H]23)OCO4)cc(OC)c1O    inactive
CC(C)CNC(=O)/C=C/CCCCc1ccc2c(c1)OCO2    inactive
C[C@H]1[C@H](C)CC[C@]2(C(=O)O)CC[C@]3(C(=O)O)C(=CCC4[C@@]5(C)CC[C@H](O[C@@H]6O[C@H](C)[C@@H](O)[C@H](O)[C@H]6O)C(C)(C)C5CC[C@]43C)[C@H]12 (stereo partly drawn)    inactive
C=C1CCC2C(C)(C)C(O)CCC2(C)C1CCC(C)CCOC(=O)CCC(=O)O (stereo not drawn)    inactive
O=C(O)CCc1cccc(O[C@@H]2O[C@H](CO)[C@@H](O)[C@H](O)[C@H]2O)c1O    inactive

Input line: Quick check: activity change, negative = cytotoxicity of CC1(C)CC[C@]2(C(=O)O)CC[C@]3(C)C(=CCC4[C@@]5(C)CCC(O[C@@H]6OC[C@H](O)[C@H](O)[C@H]6O[C@@H]6O[C@H](CO)[C@@H](O)[C@H](O)[C@H]6O)[C@@](C)(CO)C5CC[C@]43C)[C@@H]2C1 (stereo partly drawn) ?
Output line: inactive

Input line: Quick check: activity change, negative = cytotoxicity of COc1c2c(c(C)c3c1C(=O)OC3)O[C@@]1(C)C[C@@H](O)[C@]34O[C@](OC)(CC[C@]3(C)[C@H]1C2)OC4(C)C ?
Output line: inactive
